For Epidermal growth factor receptor (Homo sapiens), measured pIC50 is reported for the entries below.
pIC50: −log10 of the molar value.

MOL: C=CC(=O)Nc1ccccc1Nc1nc(Nc2ccc(OCCCN3CCOCC3)cc2)ncc1Cl
READOUT QUALIFIER: =
pIC50: 6.12
//
MOL: C=CC(=O)Nc1ccccc1Nc1nc(Nc2ccc(NC(=O)CN3CCOCC3)cc2)ncc1Cl
READOUT QUALIFIER: =
pIC50: 6.23
//
MOL: C=CC(=O)Nc1cccc(Nc2nc(Nc3ccc(CN4CCOCC4)cc3OC)ncc2Cl)c1
READOUT QUALIFIER: <
pIC50: 6.30
//
MOL: C=CC(=O)Nc1cccc(Oc2nc(Nc3ccc(CC(=O)N4CCOCC4)cc3)ncc2Cl)c1
READOUT QUALIFIER: =
pIC50: 6.00
//
MOL: C=CC(=O)Nc1ccccc1Nc1nc(Nc2ccc(CN3CCOCC3)cc2)ncc1Cl
READOUT QUALIFIER: <
pIC50: 6.10
//
MOL: C=CC(=O)Nc1cccc(Nc2nc(Nc3ccc(OCCN4CCOCC4)cc3)ncc2Cl)c1
READOUT QUALIFIER: =
pIC50: 6.02
//
MOL: C=CC(=O)Nc1cccc(Nc2nc(Nc3ccc(OCCN4CCOCC4)c(Cl)c3)ncc2Cl)c1
READOUT QUALIFIER: <
pIC50: 6.00
//
MOL: C=CC(=O)Nc1ccccc1Nc1nc(Nc2ccc(OCC(=O)N3CCOCC3)cc2)ncc1Cl
READOUT QUALIFIER: =
pIC50: 6.84
//
MOL: C=CC(=O)Nc1cccc(Nc2nc(Nc3ccc(CC(=O)N4CCOCC4)cc3)ncc2Cl)c1
READOUT QUALIFIER: >
pIC50: 6.30
//
MOL: C=CC(=O)Nc1cccc(Nc2nc(Nc3ccc(CN4CCOCC4)cc3)ncc2F)c1
READOUT QUALIFIER: =
pIC50: 6.30

====

// reported IC50 per item
- Test system: HCC827
- TEST METHOD NOTES: Antiproliferative activity against human HCC827 cells incubated for 72 hrs by MTT assay
- Assay type: functional, cell-based
- SETUP CONDITIONS: HCC827, 72 h
METRIC NAME: IC50 (nM)

MOL: C=CC(=O)Nc1cccc(Nc2nc(Nc3ccc(OCCN4CCOCC4)cc3)ncc2Cl)c1
METRIC NAME: IC50
UNIT OF MEASURE: nM
REPORTED RESULT: 43

MOL: C=CC(=O)Nc1ccccc1Nc1nc(Nc2ccc(OCCN3CCOCC3)cc2)ncc1Cl
METRIC NAME: IC50
UNIT OF MEASURE: nM
REPORTED RESULT: 524

MOL: C=CC(=O)Nc1cccc(Nc2nc(Nc3ccc(CN4CCOCC4)cc3OC)ncc2Cl)c1
METRIC NAME: IC50
UNIT OF MEASURE: nM
REPORTED RESULT: 52

MOL: C=CC(=O)Nc1cccc(Nc2nc(Nc3ccc(CN4CCOCC4)cc3)ncc2Cl)c1
METRIC NAME: IC50
UNIT OF MEASURE: nM
REPORTED RESULT: 44

====

- System: A-431
- TEST METHOD NOTES: Antiproliferative activity against human A431 cells incubated for 72 hrs by MTT assay
- Type: functional, cell-based
- SETUP CONDITIONS: A-431, 72 h
METRIC NAME: IC50 (µM)

MOL: C=CC(=O)Nc1cccc(Oc2nc(Nc3ccc(CC(=O)N4CCOCC4)cc3)ncc2Cl)c1
UNIT OF MEASURE: µM
REPORTED RESULT: 2.19
//
MOL: C=CC(=O)Nc1cccc(Nc2nc(Nc3ccc(CN4CCOCC4)cc3)ncc2Cl)c1
UNIT OF MEASURE: µM
REPORTED RESULT: 0.382
//
MOL: C=CC(=O)Nc1cccc(Nc2nc(Nc3ccc(OCCN4CCOCC4)cc3)ncc2Cl)c1
UNIT OF MEASURE: µM
REPORTED RESULT: 0.385

====

- Tested on: NCI-H1975
- TEST METHOD NOTES: Antiproliferative activity against human NCI-H1975 cells incubated for 72 hrs by MTT assay
- Type: functional, cell-based
- SETUP CONDITIONS: NCI-H1975, 72 h
Please assign no whenever IC50 is at or above 0.2 µM, and yes whenever it is below.

COMPOUND: C=CC(=O)Nc1cccc(Nc2nc(Nc3ccc(CN4CCOCC4)cc3)ncc2Cl)c1
MEASURED ON: NCI-H1975
CLASSIFICATION: yes
--
COMPOUND: C=CC(=O)Nc1cccc(Oc2nc(Nc3ccc(CC(=O)N4CCOCC4)cc3)ncc2Cl)c1
MEASURED ON: NCI-H1975
CLASSIFICATION: no
--
COMPOUND: C=CC(=O)Nc1cccc(Nc2nc(Nc3ccc(OCCN4CCOCC4)cc3)ncc2Cl)c1
MEASURED ON: NCI-H1975
CLASSIFICATION: no
--
COMPOUND: C=CC(=O)Nc1ccccc1Nc1nc(Nc2ccc(OCCCN3CCOCC3)cc2)ncc1Cl
MEASURED ON: NCI-H1975
CLASSIFICATION: no
--
COMPOUND: C=CC(=O)Nc1cccc(Nc2nc(Nc3ccc(OCCN4CCOCC4)c(Cl)c3)ncc2Cl)c1
MEASURED ON: NCI-H1975
CLASSIFICATION: no
--
COMPOUND: C=CC(=O)Nc1ccccc1Nc1nc(Nc2ccc(CN3CCOCC3)cc2)ncc1Cl
MEASURED ON: NCI-H1975
CLASSIFICATION: yes
--
COMPOUND: C=CC(=O)Nc1cccc(Nc2nc(Nc3ccc(CN4CCOCC4)cc3)ncc2F)c1
MEASURED ON: NCI-H1975
CLASSIFICATION: no
--
COMPOUND: C=CC(=O)Nc1ccccc1Nc1nc(Nc2ccc(OCCN3CCOCC3)cc2)ncc1Cl
MEASURED ON: NCI-H1975
CLASSIFICATION: no
--
COMPOUND: C=CC(=O)Nc1ccccc1Nc1nc(Nc2ccc(OCC(=O)N3CCOCC3)cc2)ncc1Cl
MEASURED ON: NCI-H1975
CLASSIFICATION: yes
--
COMPOUND: C=CC(=O)Nc1cccc(Nc2nc(Nc3ccc(CC(=O)N4CCOCC4)cc3)ncc2Cl)c1
MEASURED ON: NCI-H1975
CLASSIFICATION: no
--
COMPOUND: C=CC(=O)Nc1cccc(Nc2nc(Nc3ccc(N4CCN(C(C)=O)CC4)cc3OC)ncc2C(F)(F)F)c1 [ROCILETINIB]
MEASURED ON: NCI-H1975
CLASSIFICATION: no
--
COMPOUND: C=CC(=O)Nc1ccccc1Nc1nc(Nc2ccc(NC(=O)CN3CCOCC3)cc2)ncc1Cl
MEASURED ON: NCI-H1975
CLASSIFICATION: yes
--
COMPOUND: C=CC(=O)Nc1cccc(Nc2nc(Nc3ccc(CN4CCOCC4)cc3OC)ncc2Cl)c1
MEASURED ON: NCI-H1975
CLASSIFICATION: no

====

- MEASURED ON: Epidermal growth factor receptor (Homo sapiens, UniProt P00533, L858R/T790M)
- Sequence (P00533 25-1210 T790M/L858R limits assumed): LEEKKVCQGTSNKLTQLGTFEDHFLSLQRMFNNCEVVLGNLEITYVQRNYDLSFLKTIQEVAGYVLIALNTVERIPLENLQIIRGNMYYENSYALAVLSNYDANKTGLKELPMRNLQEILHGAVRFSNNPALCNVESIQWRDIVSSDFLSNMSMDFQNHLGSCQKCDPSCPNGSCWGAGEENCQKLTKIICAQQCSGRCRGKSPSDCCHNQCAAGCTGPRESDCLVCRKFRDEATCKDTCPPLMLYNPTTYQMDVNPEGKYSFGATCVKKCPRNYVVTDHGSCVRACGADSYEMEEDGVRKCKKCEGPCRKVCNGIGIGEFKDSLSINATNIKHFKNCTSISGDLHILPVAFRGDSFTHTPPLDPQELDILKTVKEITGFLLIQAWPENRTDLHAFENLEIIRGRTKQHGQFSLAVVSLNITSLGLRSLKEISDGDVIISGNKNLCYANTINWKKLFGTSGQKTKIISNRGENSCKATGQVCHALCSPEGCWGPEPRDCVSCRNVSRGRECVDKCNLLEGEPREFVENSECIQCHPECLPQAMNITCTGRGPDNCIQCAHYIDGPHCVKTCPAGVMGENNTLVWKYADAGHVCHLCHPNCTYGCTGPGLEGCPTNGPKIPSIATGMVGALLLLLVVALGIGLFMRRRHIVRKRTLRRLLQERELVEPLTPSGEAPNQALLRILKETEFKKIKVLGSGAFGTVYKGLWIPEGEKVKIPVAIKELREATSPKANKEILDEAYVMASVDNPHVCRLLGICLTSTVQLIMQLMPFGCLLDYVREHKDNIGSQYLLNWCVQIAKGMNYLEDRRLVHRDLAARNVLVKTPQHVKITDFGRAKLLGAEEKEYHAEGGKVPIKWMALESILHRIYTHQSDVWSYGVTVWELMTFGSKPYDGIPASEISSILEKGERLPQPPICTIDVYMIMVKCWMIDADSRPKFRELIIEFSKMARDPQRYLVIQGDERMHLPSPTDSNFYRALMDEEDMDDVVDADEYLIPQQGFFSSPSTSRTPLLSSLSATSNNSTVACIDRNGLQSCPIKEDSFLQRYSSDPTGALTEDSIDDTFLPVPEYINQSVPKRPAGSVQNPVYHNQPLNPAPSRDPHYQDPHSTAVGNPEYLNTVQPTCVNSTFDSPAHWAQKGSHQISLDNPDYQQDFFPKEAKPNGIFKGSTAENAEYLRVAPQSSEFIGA
- TEST METHOD NOTES: biochemical
Please assign Condition not met whenever IC50 is at or above 20 nM, and Condition met whenever it is below.

MOL: C=CC(=O)Nc1ccccc1Nc1nc(Nc2ccc(OCC(=O)N3CCOCC3)cc2)ncc1Cl
CLASSIFICATION: Condition not met
--
MOL: C=CC(=O)Nc1cccc(Oc2nc(Nc3ccc(CC(=O)N4CCOCC4)cc3)ncc2Cl)c1
CLASSIFICATION: Condition not met
--
MOL: C=CC(=O)Nc1cccc(Nc2nc(Nc3ccc(OCCN4CCOCC4)c(Cl)c3)ncc2Cl)c1
CLASSIFICATION: Condition not met
--
MOL: C=CC(=O)Nc1ccccc1Nc1nc(Nc2ccc(NC(=O)CN3CCOCC3)cc2)ncc1Cl
CLASSIFICATION: Condition not met
--
MOL: C=CC(=O)Nc1cccc(Nc2nc(Nc3ccc(CC(=O)N4CCOCC4)cc3)ncc2Cl)c1
CLASSIFICATION: Condition not met
--
MOL: C=CC(=O)Nc1ccccc1Nc1nc(Nc2ccc(CN3CCOCC3)cc2)ncc1Cl
CLASSIFICATION: Condition met
--
MOL: C=CC(=O)Nc1cccc(Nc2nc(Nc3ccc(OCCN4CCOCC4)cc3)ncc2Cl)c1
CLASSIFICATION: Condition not met
--
MOL: C=CC(=O)Nc1cccc(Nc2nc(Nc3ccc(CN4CCOCC4)cc3OC)ncc2Cl)c1
CLASSIFICATION: Condition met
--
MOL: C=CC(=O)Nc1ccccc1Nc1nc(Nc2ccc(OCCCN3CCOCC3)cc2)ncc1Cl
CLASSIFICATION: Condition not met
--
MOL: C=CC(=O)Nc1cccc(Nc2nc(Nc3ccc(CN4CCOCC4)cc3)ncc2F)c1
CLASSIFICATION: Condition not met
